src = paper PMC11528066

- Assay info: Biodistribution (γ-counter)
- Type: in vivo, BALB/C nude mice
- Setup conditions: male, BALB/C nude, mouse, small intestine, iv, total radioactivity, 10 min p.i.; mean ± SD, n = 3; read-out: Small intestine uptake
- Method: Micro-PET imaging was conducted using an Inveon PET scanner (Siemens, Germany). Dynamic PET examine were acquired over the first 60 min following the simultaneous injection of 7.4 to 9.25 MBq (200 to 250 μCi) of [^68Ga]Ga-HN11-1 and [^68Ga]Ga-HN11-2. […] The samples were counted using the γ-counter for determining the %ID/g, presented as mean ± standard deviation (SD). […]
Peptide text beside a SMILES is read from it. * marks the point of attachment. NOTA = O=C(O)CN1CCN(CC(=O)O)CCN(CC(=O)*)CC1; AEEEA = NCCOCCOCCOCC(=O)O
Test readout: tissue uptake at 10 min (%ID/g)
One number for each entry, in %ID/g.

**Q:** Output tissue uptake at 10 min of CC[C@H](C)[C@H](NC(=O)[C@H](CCCNC(=N)N)NC(=O)CNC(=O)[C@H](CCC(=O)O)NC(=O)[C@H](CC(N)=O)NC(=O)[C@H](Cc1ccc(O)cc1)NC(=O)[C@H](CCCNC(=N)N)NC(=O)[C@H](Cc1ccc(O)cc1)NC(=O)[C@H](Cc1c[nH]cn1)NC(=O)COCCOCCOCCNC(=O)CN1CCN(CC(=O)O)CCN(CC(=O)O)CC1)C(=O)N[C@@H](CCCNC(=N)N)C(=O)N[C@@H](CC(N)=O)C(=O)O [[^68Ga]Ga-HN11-1, metal not drawn] ({NOTA-AEEEA}-HYRYNEGRIRN-OH)
**A:** 0.86

---

- Assay info: Biodistribution (γ-counter)
- Format: in vivo, BALB/C nude mice
- Setup conditions: male, BALB/C nude, mouse, tumor, iv, total radioactivity, 30 min p.i.; mean ± SD, n = 3; read-out: Tumor uptake
Peptide text beside a SMILES is read from it. * marks the point of attachment. NOTA = O=C(O)CN1CCN(CC(=O)O)CCN(CC(=O)*)CC1; AEEEA = NCCOCCOCCOCC(=O)O
Test readout: tissue uptake at 0.5 h (%ID/g)
Give bare numbers, in %ID/g.

**Q:** Tell me its tissue uptake at 0.5 h given CC[C@H](C)[C@H](NC(=O)[C@H](CCCNC(=N)N)NC(=O)CNC(=O)[C@H](CCC(=O)O)NC(=O)[C@H](CC(N)=O)NC(=O)[C@H](Cc1ccc(O)cc1)NC(=O)[C@H](CCCNC(=N)N)NC(=O)[C@H](Cc1ccc(O)cc1)NC(=O)[C@H](Cc1c[nH]cn1)NC(=O)COCCOCCOCCNC(=O)CN1CCN(CC(=O)O)CCN(CC(=O)O)CC1)C(=O)N[C@@H](CCCNC(=N)N)C(=O)N[C@@H](CC(N)=O)C(=O)O [[^68Ga]Ga-HN11-1, metal not drawn] ({NOTA-AEEEA}-HYRYNEGRIRN-OH) as the entry.
**A:** 3.52

---

- Assay info: Biodistribution (γ-counter)
- Format: in vivo, BALB/C nude mice
- Setup conditions: male, BALB/C nude, mouse, large intestine, iv, total radioactivity, 60 min HN11-1 Block; mean ± SD, n = 3; read-out: Large intestine uptake
Peptide text beside a SMILES is read from it. * marks the point of attachment. NOTA = O=C(O)CN1CCN(CC(=O)O)CCN(CC(=O)*)CC1; AEEEA = NCCOCCOCCOCC(=O)O
Test readout: tissue uptake at 1 h (%ID/g)
One number for each entry, in %ID/g.

**Q:** Answer with the recorded tissue uptake at 1 h for the compound listed here: CC[C@H](C)[C@H](NC(=O)[C@H](CCCNC(=N)N)NC(=O)CNC(=O)[C@H](CCC(=O)O)NC(=O)[C@H](CC(N)=O)NC(=O)[C@H](Cc1ccc(O)cc1)NC(=O)[C@H](CCCNC(=N)N)NC(=O)[C@H](Cc1ccc(O)cc1)NC(=O)[C@H](Cc1c[nH]cn1)NC(=O)COCCOCCOCCNC(=O)CN1CCN(CC(=O)O)CCN(CC(=O)O)CC1)C(=O)N[C@@H](CCCNC(=N)N)C(=O)N[C@@H](CC(N)=O)C(=O)O [[^68Ga]Ga-HN11-1, metal not drawn] ({NOTA-AEEEA}-HYRYNEGRIRN-OH)
**A:** 0.23

---

- Assay info: Biodistribution (γ-counter)
- Format: in vivo, BALB/C nude mice
- Setup conditions: male, BALB/C nude, mouse, large intestine, iv, total radioactivity, 10 min p.i.; mean ± SD, n = 3; read-out: Large intestine uptake
- Description: Micro-PET imaging was conducted using an Inveon PET scanner (Siemens, Germany). Dynamic PET examine were acquired over the first 60 min following the simultaneous injection of 7.4 to 9.25 MBq (200 to 250 μCi) of [^68Ga]Ga-HN11-1 and [^68Ga]Ga-HN11-2. […] The samples were counted using the γ-counter for determining the %ID/g, presented as mean ± standard deviation (SD). […]
Peptide text beside a SMILES is read from it. * marks the point of attachment. NOTA = O=C(O)CN1CCN(CC(=O)O)CCN(CC(=O)*)CC1; AEEEA = NCCOCCOCCOCC(=O)O
Test readout: tissue uptake at 10 min (%ID/g)
Numbers only, in %ID/g.

**Q:** Fill in reported tissue uptake at 10 min for this entry: CC[C@H](C)[C@H](NC(=O)[C@H](CCCNC(=N)N)NC(=O)CNC(=O)[C@H](CCC(=O)O)NC(=O)[C@H](CC(N)=O)NC(=O)[C@H](Cc1ccc(O)cc1)NC(=O)[C@H](CCCNC(=N)N)NC(=O)[C@H](Cc1ccc(O)cc1)NC(=O)[C@H](Cc1c[nH]cn1)NC(=O)COCCOCCOCCNC(=O)CN1CCN(CC(=O)O)CCN(CC(=O)O)CC1)C(=O)N[C@@H](CCCNC(=N)N)C(=O)N[C@@H](CC(N)=O)C(=O)O [[^68Ga]Ga-HN11-1, metal not drawn] ({NOTA-AEEEA}-HYRYNEGRIRN-OH)
**A:** 1.02

---

- Assay info: Biodistribution (γ-counter)
- Format: in vivo, BALB/C nude mice
- Setup conditions: male, BALB/C nude, mouse, large intestine, iv, total radioactivity, 90 min p.i.; mean ± SD, n = 3; read-out: Large intestine uptake
Peptide text beside a SMILES is read from it. * marks the point of attachment. NOTA = O=C(O)CN1CCN(CC(=O)O)CCN(CC(=O)*)CC1; AEEEA = NCCOCCOCCOCC(=O)O
Test readout: tissue uptake at 1.5 h (%ID/g)
Give bare numbers, in %ID/g.

**Q:** Output tissue uptake at 1.5 h of CC[C@H](C)[C@H](NC(=O)[C@H](CCCNC(=N)N)NC(=O)CNC(=O)[C@H](CCC(=O)O)NC(=O)[C@H](CC(N)=O)NC(=O)[C@H](Cc1ccc(O)cc1)NC(=O)[C@H](CCCNC(=N)N)NC(=O)[C@H](Cc1ccc(O)cc1)NC(=O)[C@H](Cc1c[nH]cn1)NC(=O)COCCOCCOCCNC(=O)CN1CCN(CC(=O)O)CCN(CC(=O)O)CC1)C(=O)N[C@@H](CCCNC(=N)N)C(=O)N[C@@H](CC(N)=O)C(=O)O [[^68Ga]Ga-HN11-1, metal not drawn] ({NOTA-AEEEA}-HYRYNEGRIRN-OH)
**A:** 0.1

---

- Assay info: Biodistribution (γ-counter)
- Format: in vivo, BALB/C nude mice
- Setup conditions: male, BALB/C nude, mouse, bone, iv, total radioactivity, 10 min p.i.; mean ± SD, n = 3; read-out: Bone uptake
Peptide text beside a SMILES is read from it. * marks the point of attachment. NOTA = O=C(O)CN1CCN(CC(=O)O)CCN(CC(=O)*)CC1; AEEEA = NCCOCCOCCOCC(=O)O
Test readout: tissue uptake at 10 min (%ID/g)
Answers are plain numbers, in %ID/g.

**Q:** Write down tissue uptake at 10 min measured for item CC[C@H](C)[C@H](NC(=O)[C@H](CCCNC(=N)N)NC(=O)CNC(=O)[C@H](CCC(=O)O)NC(=O)[C@H](CC(N)=O)NC(=O)[C@H](Cc1ccc(O)cc1)NC(=O)[C@H](CCCNC(=N)N)NC(=O)[C@H](Cc1ccc(O)cc1)NC(=O)[C@H](Cc1c[nH]cn1)NC(=O)COCCOCCOCCNC(=O)CN1CCN(CC(=O)O)CCN(CC(=O)O)CC1)C(=O)N[C@@H](CCCNC(=N)N)C(=O)N[C@@H](CC(N)=O)C(=O)O [[^68Ga]Ga-HN11-1, metal not drawn] ({NOTA-AEEEA}-HYRYNEGRIRN-OH)
**A:** 0.68

---

- Assay info: Biodistribution (γ-counter)
- Format: in vivo, BALB/C nude mice
- Setup conditions: male, BALB/C nude, mouse, brain, iv, total radioactivity, 10 min p.i.; mean ± SD, n = 3; read-out: Brain uptake
Peptide text beside a SMILES is read from it. * marks the point of attachment. NOTA = O=C(O)CN1CCN(CC(=O)O)CCN(CC(=O)*)CC1; AEEEA = NCCOCCOCCOCC(=O)O
Test readout: tissue uptake at 10 min (%ID/g)
Give bare numbers, in %ID/g.

**Q:** Using known records, supply tissue uptake at 10 min for CC[C@H](C)[C@H](NC(=O)[C@H](CCCNC(=N)N)NC(=O)CNC(=O)[C@H](CCC(=O)O)NC(=O)[C@H](CC(N)=O)NC(=O)[C@H](Cc1ccc(O)cc1)NC(=O)[C@H](CCCNC(=N)N)NC(=O)[C@H](Cc1ccc(O)cc1)NC(=O)[C@H](Cc1c[nH]cn1)NC(=O)COCCOCCOCCNC(=O)CN1CCN(CC(=O)O)CCN(CC(=O)O)CC1)C(=O)N[C@@H](CCCNC(=N)N)C(=O)N[C@@H](CC(N)=O)C(=O)O [[^68Ga]Ga-HN11-1, metal not drawn] ({NOTA-AEEEA}-HYRYNEGRIRN-OH)
**A:** 0.17
